The origin of these recorded values is paper PMC4072508.

molecular target: Bcl-xL, Q07817; test: peptide SPOT array, c-Myc-tagged receptor at 1 uM or 100 nM, anti-c-Myc-Cy3
Sequence (Q07817 1-209): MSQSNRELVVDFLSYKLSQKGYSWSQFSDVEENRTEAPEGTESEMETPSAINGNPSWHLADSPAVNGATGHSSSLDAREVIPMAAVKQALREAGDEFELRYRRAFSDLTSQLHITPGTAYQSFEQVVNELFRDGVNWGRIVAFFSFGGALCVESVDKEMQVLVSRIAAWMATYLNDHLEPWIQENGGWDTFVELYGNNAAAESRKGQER
SPOT signal as a fraction of Bim BH3's signal on the same receptor and array values, listed per item
Simply state the number, no unit and no words.

[
  {
    "binder": "DFMGRTFAKPLVKMADEAYCPPRFPP [OTOF]",
    "measured.value": 0.26
  },
  {
    "binder": "SAKLGKSSSLLTQTSEECNGILTEKM [ZNF396]",
    "measured.value": 0.02
  },
  {
    "binder": "QAEADHLGKELQSVSAKLQAQVEENE [GOLGA6L1]",
    "measured.value": 0.02
  }
]

Shifting focus to the binder that follows.
Input: Check the records and state SPOT signal as a fraction of Bim BH3's signal on the same receptor and array for ELDEDDLEAEDDALGDELLADEDSSY [CHMP5]
Output: 0.06
